Values from paper PMC7114147

- assay.summary: in vitro
- condition.summary: dog, Cytotoxicity CC50
property.name: CC50 (µM)
Value expressed in µM; do not type the unit.

The value of CC50 measured for the compound CC(N)C12CC3CC(CC(C3)C1)C2 (centres unmarked) turned out to be 230

----------
- System: MDCK cells
- condition.summary: dog
Kindly supply the reported Cytotoxicity (MCC) values for the records listed here.

Measured Cytotoxicity (MCC), CC(N)C12CC3CC(CC(C3)C1)C2 (centres unmarked) [Rimantadine, rimantadine] : >100 µM

Please fill in: Cytotoxicity (MCC) reported for NC12CC3CC(CC(C3)C1)C2 [Amantadine, amantadine] = 500 µM

Cytotoxicity (MCC) reading for CCC(CC)O[C@@H]1C=C(C(=O)O)C[C@H](N)[C@H]1NC(C)=O [Oseltamivir carboxylate] : >100 µM

Reported Cytotoxicity (MCC) of NC(=O)c1ncn([C@@H]2O[C@H](CO)[C@@H](O)[C@H]2O)n1 [Ribavirin] : >100 µM

Entry CC(=O)N[C@H]1[C@H]([C@H](O)[C@H](O)CO)OC(C(=O)O)=C[C@@H]1N=C(N)N [Zanamivir] — recorded Cytotoxicity (MCC) = >100 µM
